The measured values listed here are drawn from PubChem BioAssay AID686979.

- experiment_summary: qHTS for Inhibitors of human tyrosyl-DNA phosphodiesterase 1 (TDP1): qHTS in cells in presence of CPT; also: nearly all actives have a fitted effect of over 55% in size
- experimental_setup: chicken DT40 Tdp1-/-;hTDP1 cells + 20 nM CPT, ATP luminescence, 48 h; series mostly up to 46.2 µM
The whole screen tested about 420,000 compounds, of which about 50,000 (12%) were called active. Roughly 26% stayed inconclusive and do not appear here. Calls follow the shape of the dose curve; as a rule, active = well fitted inhibition curve with a large enough effect; inconclusive = small, poorly fitted or top-dose-only effect; inactive = flat fitted curve, though single readings scatter. The list comes from a sample in which actives are over-represented; it also holds close analogues and randomly drawn compounds.
Choose the fitting class; nothing outside label 1 (active), label 0 (inactive) is accepted.

Observe how each entry below is paired with its result.
>  <compound>
COC(=O)/C(=C1\Oc2ccc(C(C)(C)C)cc2S1)C(F)(F)F

>  <label_class>
label 0

$$$$
>  <compound>
Cc1nnc(SCC(=O)NC(=O)NC2CCCC2)n1N

>  <label_class>
label 0

$$$$
>  <compound>
Cc1ccc(O/C=C2\OC(=O)c3ccccc32)cc1

>  <label_class>
label 0

$$$$
>  <compound>
Cc1ccc(C(=O)Nc2c(C(=O)NC(C)(C)C)oc3ccccc23)cc1

>  <label_class>
label 1

$$$$
>  <compound>
CCOc1ccc(NC(=O)CCC(=O)N2CC(C)Oc3ccc(C)cc32)cc1 (stereo not drawn)

>  <label_class>
label 1

$$$$

Assay outcome for COc1ccccc1C(=O)Nc1ccc(Nc2ccccc2)cc1 : what was it?
label 0

Assay outcome for O=C(c1cccc(-n2cccc2)c1)N1CCN(S(=O)(=O)c2ccc(F)cc2)CC1 : what was it?
label 0

Assay outcome for Cc1ccc(C(=O)Nc2c(-c3ccccc3)[nH][nH]c2=O)cc1 : what was it?
label 0

* * *

- experiment_summary: qHTS for Inhibitors of human tyrosyl-DNA phosphodiesterase 1 (TDP1): qHTS in cells in presence of CPT; also: nearly all actives have a fitted effect of over 55% in size
- experimental_setup: chicken DT40 Tdp1-/-;hTDP1 cells + 20 nM CPT, ATP luminescence, 48 h; series mostly up to 46.2 µM
In all, about 420,000 compounds went through this assay and about 50,000 (12%) were called active. Inconclusive results (about 26%) are left out. The call rests on the fitted dose curve; in most records, active means well fitted inhibition curve with a large enough effect; inconclusive means small, poorly fitted or top-dose-only effect; inactive means flat fitted curve, though single readings scatter. Shown is part of a subset that was picked to be rich in actives.
Choose the fitting class; nothing outside active, inactive is accepted.

>  <molecule>
Cc1cccc(CCNC(=O)Cn2ncc3c([nH]c4ccc(C)cc43)c2=O)c1

>  <label_class>
inactive

$$$$

Assay outcome for CCOC(=O)c1cccc(NS(=O)(=O)c2cn(C)c(C)n2)c1 : what was it?
inactive

Assay outcome for COc1ccc(S(=O)(=O)NCCCc2ccccc2)cc1 : what was it?
inactive

Assay outcome for COC(=O)Cc1[nH]n(-c2nc3ccccc3s2)c(=O)c1C(C)=Nc1ccc(OC)cc1 : what was it?
active

Assay outcome for COCCCNC(=O)C1CC(=O)N(CCc2ccc(F)cc2)C1 (centres undefined) : what was it?
inactive

Assay outcome for COc1cc2nc(CN(C)Cc3ccc(F)cc3)[nH]c(=O)c2cc1OC : what was it?
inactive

* * *

- experiment_summary: qHTS for Inhibitors of human tyrosyl-DNA phosphodiesterase 1 (TDP1): qHTS in cells in presence of CPT; also: nearly all actives have a fitted effect of over 55% in size
- experimental_setup: chicken DT40 Tdp1-/-;hTDP1 cells + 20 nM CPT, ATP luminescence, 48 h; series mostly up to 46.2 µM
- Method: Human tyrosyl-DNA phosphodiesterase 1 (TDP1) is a novel repair gene, and we propose to use it as a new target for anticancer drug development. […] For the primary screen, Tdp1-/-;hTDP1 cells will be exposed to small molecules in the presence or absence of CPT, and their growth kinetics will be evaluated after 48 hours by measuring ATP activity. […] The hit compounds will then be evaluated in the presence or absence of CPT using Tdp1-/- cells. […]
Among all 420,000 compounds or so, about 50,000 (12%) were called active. Another 26% or so got no clear call; they are omitted. The call rests on the fitted dose curve; in most records, active means well fitted inhibition curve with a large enough effect; inconclusive means small, poorly fitted or top-dose-only effect; inactive means flat fitted curve, though single readings scatter. The sample holds actives, similar compounds and a random draw of the others, so the mix is not that of the screen.
Choose the fitting class; nothing outside Y for active, N for inactive is accepted.

>  <compound>
Cc1csc(=Nc2ccccc2)n1CCO

>  <label_class>
N

$$$$
>  <compound>
CC(C)n1cnc2c(Nc3cccc(Cl)c3)nc(N(CCO)CCCO)nc21

>  <label_class>
Y

$$$$
>  <compound>
COc1ccc(CCNS(=O)(=O)c2ccc(F)cc2)cc1OC

>  <label_class>
N

$$$$
>  <compound>
CCOC(=O)Cc1csc(NC(=O)C(C)(C)C)n1

>  <label_class>
N

$$$$

Assay outcome for O=C(CCc1ccccc1)Nc1cccc(-c2nnc(-c3ccco3)o2)c1 : what was it?
Y

Assay outcome for CN(C)S(=O)(=O)c1ccc(N2CCCC2=O)c([N+](=O)[O-])c1 : what was it?
N

Assay outcome for CCOc1ccc(Cn2nnc(C(=O)NCc3ccccc3)c2N)cc1 : what was it?
N

Assay outcome for COc1ccc(N(C(=O)c2cccnc2)S(=O)(=O)c2ccc(OC)c(OC)c2)cc1 : what was it?
N

Assay outcome for Cc1cc(N2CCOCC2)nc(-c2ccc(Br)cc2)n1 : what was it?
N

Assay outcome for COc1ccccc1C(=O)NCC(=O)OCC(=O)NNC(=O)c1ccc(Br)cc1 : what was it?
N

Assay outcome for COc1cc(NS(=O)(=O)c2ccc(NC(=S)NC(=O)c3ccc(Br)cc3)cc2)ncn1 : what was it?
N

Assay outcome for CCOC(=O)Cc1csc(NC(=O)CSc2nc(C)cc(=O)[nH]2)n1 : what was it?
Y

Assay outcome for COc1ccc(N2CCN(S(=O)(=O)c3cc(Br)cnc3N)CC2)cc1 : what was it?
N

Assay outcome for COc1ccc(N2CCN(Cc3nnc(-c4ccccc4)o3)CC2)cc1 : what was it?
N

Assay outcome for CN(CC(=O)Nc1cccc(F)c1)CC(=O)Nc1cccc([N+](=O)[O-])c1 : what was it?
N

Assay outcome for COc1ccc(NC(=O)c2ccc3oc(=O)c(S(=O)(=O)c4ccc(F)cc4)cc3c2)c(OC)c1 : what was it?
N

Assay outcome for COCCCNC(=O)/C(C#N)=C/c1c(N2CCCCCC2)nc2ccccn2c1=O : what was it?
N
